FYI, the data here is from the supplement of paper PMC9112550.

# System: Escherichia coli TOP10
# protocol.summary: shrunken log2 fold change of peptide-encoding DNA abundance (4.5 h post-induction vs induction); higher = less antimicrobial activity (less host growth inhibition)
# condition.label: time post-induction: 4.5 h; library: site-saturation at positions 5, 18, 19, 20
measurement.type: shrunken log2 fold change
Write the value as a bare number.

RRIRWRPPRLPRPRPRPAMVPRP | 0.483
RRIRLRPPRLPRPRPRPEVTPRP | -0.046
RRIRLRPPRLPRPRPRPHFNPRP | -0.386
RRIRNRPPRLPRPRPRPPCDPRP | -0.0173
RRIRLRPPRLPRPRPRPDCVPRP | 0.0107

[in] Which shrunken log2 fold change value is on record for RRIRQRPPRLPRPRPRPIAEPRP ?
[out] -0.103

[in] Query (sequence): RRIRDRPPRLPRPRPRPYTQPRP ; field requested: shrunken log2 fold change
[out] -0.165

[in] Look up shrunken log2 fold change for this sequence: RRIRSRPPRLPRPRPRPPSQPRP
[out] 0.235

[in] Given the entry RRIRWRPPRLPRPRPRPAEMPRP , report its measured shrunken log2 fold change.
[out] 0.213

[in] Which value of shrunken log2 fold change has been reported for RRIRARPPRLPRPRPRPEQYPRP in the records?
[out] -0.0243

[in] Data request, read-out shrunken log2 fold change, for RRIRVRPPRLPRPRPRPGWPPRP
[out] 0.433

[in] Any idea what shrunken log2 fold change was measured for RRIRNRPPRLPRPRPRPYKLPRP ?
[out] -0.66

[in] Need shrunken log2 fold change of RRIRPRPPRLPRPRPRPVRLPRP , thanks.
[out] 0.238

[in] Looking for the measured shrunken log2 fold change of RRIRWRPPRLPRPRPRPSMTPRP , can you help?
[out] 0.178

* * *

# System: Escherichia coli TOP10
# protocol.summary: shrunken log2 fold change of peptide-encoding DNA abundance (4.5 h post-induction vs induction); higher = less antimicrobial activity (less host growth inhibition)
# condition.label: time post-induction: 4.5 h; library: site-saturation at positions 5, 18, 19, 20
measurement.type: shrunken log2 fold change

Take a look at these entries with their results.
RRIRARPPRLPRPRPRPYEPPRP | 0.116
RRIRQRPPRLPRPRPRPTWRPRP | 0.345
RRIRYRPPRLPRPRPRPKCNPRP | -0.533
RRIRVRPPRLPRPRPRPECCPRP | 0.0234
RRIRKRPPRLPRPRPRPDLEPRP | 0.0158

[in] What does the record list as shrunken log2 fold change for RRIRERPPRLPRPRPRPIRMPRP ?
[out] -0.00149

[in] So what's the measured shrunken log2 fold change for this one? RRIRSRPPRLPRPRPRPRYEPRP
[out] -0.12

[in] So what does the record say about shrunken log2 fold change for RRIRVRPPRLPRPRPRPPPQPRP ?
[out] 0.856

[in] Sample RRIRCRPPRLPRPRPRPVWIPRP — what was its shrunken log2 fold change?
[out] -0.441

* * *

# Tested on: Escherichia coli TOP10
# protocol.summary: shrunken log2 fold change of peptide-encoding DNA abundance (4.5 h post-induction vs induction); higher = less antimicrobial activity (less host growth inhibition)
# condition.label: time post-induction: 4.5 h; library: site-saturation at positions 5, 18, 19, 20
Catalogue of sequences with associated shrunken log2 fold change

Recorded shrunken log2 fold change, per entry:
RRIRWRPPRLPRPRPRPLMAPRP | 0.247
RRIRWRPPRLPRPRPRPIEYPRP | -0.224
RRIRSRPPRLPRPRPRPTRNPRP | 0.29
RRIRVRPPRLPRPRPRPKVMPRP | -0.12
RRIRYRPPRLPRPRPRPLMYPRP | -0.48
RRIRKRPPRLPRPRPRPFMPPRP | -0.0694

[in] Entry RRIRDRPPRLPRPRPRPINSPRP has what shrunken log2 fold change?
[out] -0.292

[in] Tell me the measured shrunken log2 fold change of RRIRDRPPRLPRPRPRPPTIPRP , please.
[out] 0.0394

* * *

# System: Escherichia coli TOP10
# protocol.summary: shrunken log2 fold change of peptide-encoding DNA abundance (4.5 h post-induction vs induction); higher = less antimicrobial activity (less host growth inhibition)
# condition.label: time post-induction: 4.5 h; library: site-saturation at positions 5, 18, 19, 20
Kindly note that classification relies on shrunken log2 fold change with these boundaries: low-valued (below -0.1), mid-valued (-0.1 to below 0.009), high-valued (0.009 or more)

RRIRYRPPRLPRPRPRPLNLPRP | low-valued

[in] Given RRIRWRPPRLPRPRPRPHRPPRP , name the class its shrunken log2 fold change places it in.
[out] low-valued

[in] For RRIRVRPPRLPRPRPRPGATPRP , which shrunken log2 fold change bin applies?
[out] high-valued

[in] Please report the category associated with RRIRERPPRLPRPRPRPMETPRP , nothing else.
[out] high-valued

[in] Bin? RRIRQRPPRLPRPRPRPFWEPRP
[out] mid-valued

[in] In plain terms, what class is RRIRLRPPRLPRPRPRPPWWPRP ?
[out] high-valued

* * *

# System: Escherichia coli TOP10
# protocol.summary: shrunken log2 fold change of peptide-encoding DNA abundance (4.5 h post-induction vs induction); higher = less antimicrobial activity (less host growth inhibition)
# condition.label: time post-induction: 4.5 h; library: site-saturation at positions 5, 18, 19, 20
measurement.type: shrunken log2 fold change

RRIRRRPPRLPRPRPRPPPMPRP | 0.959
RRIRQRPPRLPRPRPRPAFAPRP | 0.344
RRIRQRPPRLPRPRPRPSKKPRP | 0.0216
RRIRPRPPRLPRPRPRPCFDPRP | 0.0273
RRIRSRPPRLPRPRPRPDAAPRP | 1.05

[in] Fill in: shrunken log2 fold change of RRIRDRPPRLPRPRPRPAGCPRP is ___
[out] 0.738

[in] Please look up its shrunken log2 fold change: RRIRHRPPRLPRPRPRPMNSPRP
[out] -0.214

[in] Given the sequence RRIRCRPPRLPRPRPRPCLMPRP , what is its reported shrunken log2 fold change?
[out] -0.421

* * *

# Tested on: Escherichia coli TOP10
# protocol.summary: shrunken log2 fold change of peptide-encoding DNA abundance (4.5 h post-induction vs induction); higher = less antimicrobial activity (less host growth inhibition)
# condition.label: time post-induction: 4.5 h; library: site-saturation at positions 5, 18, 19, 20
# cutoff -0.02 applies to shrunken log2 fold change; >= gives y, < gives n

Here's what some known entries look like.
RRIRNRPPRLPRPRPRPFCNPRP | n
RRIRYRPPRLPRPRPRPVIIPRP | n

# input for lookup
[in] Is it the case that RRIRGRPPRLPRPRPRPKHHPRP has shrunken log2 fold change reaching or exceeding -0.02?
[out] y

* * *

# System: Escherichia coli TOP10
# protocol.summary: shrunken log2 fold change of peptide-encoding DNA abundance (4.5 h post-induction vs induction); higher = less antimicrobial activity (less host growth inhibition)
# condition.label: time post-induction: 4.5 h; library: site-saturation at positions 5, 18, 19, 20
Records here are stratified by shrunken log2 fold change; strata: low class: < -0.2; middle class: ≥ -0.2 and < 0.2; high class: ≥ 0.2

Worked cases, answers included:
RRIRGRPPRLPRPRPRPEVLPRP | high class
RRIRRRPPRLPRPRPRPIDQPRP | high class
RRIRARPPRLPRPRPRPLMHPRP | high class
RRIRIRPPRLPRPRPRPLDGPRP | middle class

[in] Hi, small favor: classify RRIRGRPPRLPRPRPRPFMSPRP by its shrunken log2 fold change when you get a moment.
[out] middle class

[in] Please report the category associated with RRIRGRPPRLPRPRPRPHKPPRP , nothing else.
[out] high class

* * *

# Test system: Escherichia coli TOP10;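 also: peptides expressed intracellularly from a pBAD plasmid library in pooled LB shake-flask culture, induced with 0.3% L-arabinose, DNA abundance read by NGS, three biological replicates, DESeq2 with apeglm shrinkage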
# protocol.summary: shrunken log2 fold change of peptide-encoding DNA abundance (4.5 h post-induction vs induction); higher = less antimicrobial activity (less host growth inhibition)
# condition.label: time post-induction: 4.5 h; library: site-saturation at positions 5, 18, 19, 20
Parameter class (string): assigned from measured shrunken log2 fold change. Ranges: lower band (below -0.2), central band (-0.2 to below 0.1), upper band (0.1 or more)

Examples from the recorded data:
RRIRTRPPRLPRPRPRPKVYPRP | central band
RRIRFRPPRLPRPRPRPAEIPRP | lower band
RRIRLRPPRLPRPRPRPNNYPRP | lower band
RRIRDRPPRLPRPRPRPASTPRP | upper band
RRIRSRPPRLPRPRPRPKHIPRP | lower band

[in] Where would RRIRTRPPRLPRPRPRPCVLPRP land among the classes by reported shrunken log2 fold change?
[out] central band

[in] Assign a category based on measured shrunken log2 fold change for RRIRSRPPRLPRPRPRPLCDPRP and give only the class name.
[out] upper band

[in] Hey, which category is RRIRRRPPRLPRPRPRPNMNPRP in, do you know?
[out] lower band
